Molecular target: Hs_GSK3β (Homo sapiens)
Construct: host or cells: Sf9 insect cells (baculovirus)
Sequence (P49841 whole entry): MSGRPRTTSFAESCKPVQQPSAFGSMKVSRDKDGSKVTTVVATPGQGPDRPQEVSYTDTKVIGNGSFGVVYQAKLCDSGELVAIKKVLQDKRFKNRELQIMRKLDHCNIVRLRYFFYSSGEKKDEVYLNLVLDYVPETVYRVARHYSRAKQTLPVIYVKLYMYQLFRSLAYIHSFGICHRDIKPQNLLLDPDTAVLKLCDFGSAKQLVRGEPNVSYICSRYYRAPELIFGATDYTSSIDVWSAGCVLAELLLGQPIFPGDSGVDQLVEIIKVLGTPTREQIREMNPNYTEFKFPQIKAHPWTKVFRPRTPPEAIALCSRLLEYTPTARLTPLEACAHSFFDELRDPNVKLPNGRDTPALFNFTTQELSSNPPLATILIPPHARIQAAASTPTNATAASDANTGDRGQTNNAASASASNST
Test: ADP-Glo kinase assay, primary screen
Assay type: biochemical
Settings: 1 µM, n=2; read-out: % of residual activity Hs_GSK3β
remaining activity at 1 µM vs 80%: less than gives 1.0; not less than gives 0.0.

Some solved entries appear below for comparison.
O=[N+]([O-])c1cc(Br)ccc1-n1cc(COc2cccc3cnc(Nc4cccc(Cl)c4)nc23)nn1 [12d] : 0.0
Cc1ccc(-n2cc(COc3cccc4cnc(Nc5ccccc5)nc34)nn2)c([N+](=O)[O-])c1 : 0.0
O=C(O)c1ccc(-n2cc(COc3cccc4cnc(Nc5cccc(Cl)c5)nc34)nn2)c([N+](=O)[O-])c1 [12g] : 1.0
Cc1ccc(-n2cc(COc3cccc4cnc(Nc5cc(Cl)cc(Cl)c5)nc34)nn2)c([N+](=O)[O-])c1 : 0.0
CC(C)(C)OC(=O)N[C@H]1CC[C@H](n2cc(COc3cccc4cnc(Nc5cc(Cl)cc(Cl)c5)nc34)nn2)CC1 [18b] : 1.0
CC(C)(C)OC(=O)N[C@H]1CC[C@H](n2cc(COc3cccc4cnc(Nc5cccc(Cl)c5)nc34)nn2)CC1 [18a] : 0.0

Prompt: Given the entry N[C@H]1CC[C@H](n2cc(COc3cccc4cnc(Nc5cc(Cl)cc(Cl)c5)nc34)nn2)CC1 [19b] , would its reported remaining activity at 1 µM be below 80%?
Completion: 1.0

Prompt: Given the entry O=[N+]([O-])c1cc(CO)ccc1-n1cc(COc2cccc3cnc(Nc4cccc(Cl)c4)nc23)nn1 [12e] , would its reported remaining activity at 1 µM be below 80%?
Completion: 0.0

Prompt: Given the entry COC(=O)c1ccc(-n2cc(COc3cccc4cnc(Nc5cccc(Cl)c5)nc34)nn2)c([N+](=O)[O-])c1 [12f] , would its reported remaining activity at 1 µM be below 80%?
Completion: 0.0

---

Biological target: Hs_HASPIN (Homo sapiens, UniProt Q8TF76)
Construct: host or cells: bacteria
Sequence (Q8TF76 whole entry): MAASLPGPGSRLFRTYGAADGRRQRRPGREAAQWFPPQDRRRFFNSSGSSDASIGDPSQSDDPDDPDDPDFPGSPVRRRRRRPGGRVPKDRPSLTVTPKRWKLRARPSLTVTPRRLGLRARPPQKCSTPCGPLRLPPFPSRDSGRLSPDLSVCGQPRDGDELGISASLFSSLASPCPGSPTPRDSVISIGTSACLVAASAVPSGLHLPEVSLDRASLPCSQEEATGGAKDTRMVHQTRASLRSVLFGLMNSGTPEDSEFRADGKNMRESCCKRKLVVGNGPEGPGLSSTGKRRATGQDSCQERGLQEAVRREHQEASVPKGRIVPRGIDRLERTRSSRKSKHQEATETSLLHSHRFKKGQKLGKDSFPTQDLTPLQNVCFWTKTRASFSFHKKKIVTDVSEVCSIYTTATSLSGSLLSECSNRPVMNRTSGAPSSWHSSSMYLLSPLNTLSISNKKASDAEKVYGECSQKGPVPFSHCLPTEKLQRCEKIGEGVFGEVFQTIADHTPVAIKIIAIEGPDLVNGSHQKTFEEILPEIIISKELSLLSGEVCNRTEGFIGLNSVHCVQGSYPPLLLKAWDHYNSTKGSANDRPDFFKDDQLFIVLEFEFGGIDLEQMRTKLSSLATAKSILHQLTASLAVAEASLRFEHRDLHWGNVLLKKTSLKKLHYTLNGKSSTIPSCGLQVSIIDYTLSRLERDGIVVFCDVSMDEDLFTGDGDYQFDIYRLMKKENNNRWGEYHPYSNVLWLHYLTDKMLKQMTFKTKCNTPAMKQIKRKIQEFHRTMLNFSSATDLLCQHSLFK
Assay: ADP-Glo kinase assay, primary screen
Type: biochemical
Details: 10 µM, n=2; read-out: % of residual activity Hs_HASPIN
endpoint-name: remaining activity at 10 µM (%)
Number in %, nothing else.

The examples below pair each entry with its known result.
O=C(O)c1ccc(-n2cc(COc3cccc4cnc(Nc5cccc(Cl)c5)nc34)nn2)c([N+](=O)[O-])c1 [12g] : 69
N[C@H]1CC[C@H](n2cc(COc3cccc4cnc(Nc5cccc(Cl)c5)nc34)nn2)CC1 [19a] : 92
N[C@H]1CC[C@H](n2cc(COc3cccc4cnc(Nc5cc(Cl)cc(Cl)c5)nc34)nn2)CC1 [19b] : 90

In the following, a different molecule is considered.
Prompt: Give reported remaining activity at 10 µM for Cc1ccc(-n2cc(COc3cccc4cnc(Nc5ccccc5)nc34)nn2)c([N+](=O)[O-])c1 [7a] (Hs_HASPIN (Homo sapiens, UniProt Q8TF76))
Completion: 94

---

Molecular target: Hs_CDK5/p25 (Homo sapiens)
Construct: host or cells: bacteria
Sequence (Q00535 whole entry): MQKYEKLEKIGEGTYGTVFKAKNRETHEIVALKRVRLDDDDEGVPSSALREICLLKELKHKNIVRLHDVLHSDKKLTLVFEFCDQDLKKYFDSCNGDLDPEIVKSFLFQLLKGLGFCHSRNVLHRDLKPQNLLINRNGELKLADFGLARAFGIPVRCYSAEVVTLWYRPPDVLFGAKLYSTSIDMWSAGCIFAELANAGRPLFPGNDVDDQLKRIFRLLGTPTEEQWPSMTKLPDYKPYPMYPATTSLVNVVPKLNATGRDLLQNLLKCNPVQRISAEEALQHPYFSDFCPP
Sequence (Q15078 99-307 partner limits assumed): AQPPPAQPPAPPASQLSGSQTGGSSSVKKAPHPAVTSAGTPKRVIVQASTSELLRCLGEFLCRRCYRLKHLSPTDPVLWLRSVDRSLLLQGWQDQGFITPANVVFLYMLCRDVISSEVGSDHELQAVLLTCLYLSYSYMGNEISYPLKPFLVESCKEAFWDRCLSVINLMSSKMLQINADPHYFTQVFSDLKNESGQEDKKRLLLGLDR
Assay: ADP-Glo kinase assay, primary screen
Format: biochemical
Settings: 10 µM, n=2; read-out: % of residual activity Hs_CDK5/p25
endpoint-name: remaining activity at 10 µM

Prompt: Respond only with remaining activity at 10 µM recorded for CC(C)(C)OC(=O)N[C@H]1CC[C@@H](n2cc(COc3cccc4cnc(Nc5cccc(Cl)c5)nc34)nn2)CC1 [15a]
Completion: 96%

Prompt: Respond only with remaining activity at 10 µM recorded for CC(C)(C)OC(=O)N[C@H]1CC[C@H](n2cc(COc3cccc4cnc(Nc5cccc(Cl)c5)nc34)nn2)CC1 [18a]
Completion: 58%

Prompt: Respond only with remaining activity at 10 µM recorded for Cc1ccc(-n2cc(COc3cccc4cnc(Nc5ccccc5)nc34)nn2)c([N+](=O)[O-])c1
Completion: 65%

Prompt: Respond only with remaining activity at 10 µM recorded for N[C@H]1CC[C@H](n2cc(COc3cccc4cnc(Nc5cccc(Cl)c5)nc34)nn2)CC1 [19a]
Completion: 30%
